Parameter mCPT1b fold of induction compared to DMSO control: see the listing below.
System: mCPT1b
Assay Text: Gene expression in C2C12 muscle cells (TaqMan RT-PCR): mCPT1b
Format: cell-based, mouse
Condition: C2C12 cells, 24 h incubation, mRNA
Result Type: mCPT1b fold of induction compared to DMSO control (fold)

| Smiles | Quantitative Result |
| --- | --- |
| O=C(C=Cc1ccc(O)c(O)c1)NC(=O)c1ccccc1O | 1.33 |
| COc1ccc(C(=O)/C=C/c2c(CCN(C)C(C)=O)cc3c(c2OC)OCO3)cc1 | 5.08 |
| COc1ccc(C=CC(=O)c2cc(OC)ccc2OC)c(OC)c1 | 3.64 |
| COc1ccc(C=C2Oc3cc(O)ccc3C2=O)cc1 | 1.12 |
| COc1ccc(C(=O)C=Cc2ccc(OC)c(OC)c2)cc1 | 1.62 |
| COc1cc(C=CC(=O)NC(=O)c2ccccc2O)cc(OC)c1OC | 1.05 |
| COc1ccc(C(=O)C=Cc2cccc(OC(=O)C=Cc3ccccc3)c2)cc1 | 4.19 |
| COc1ccc(C(=O)C=Cc2ccc(OC)cc2OC)cc1 | 1.29 |
